The measured values listed here are drawn from the supplement of paper PMC6555819.

# Tested on: RARb homodimer (NR concentration 270 nM)
# protocol_text: PBM binding z-score (relative to random genomic background probes); higher = stronger binding; sequences stand for … in GC…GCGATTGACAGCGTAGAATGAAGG
Label scheme for PBM binding z-score: lower than 1 is False, 1 and above is True.

# residues, group_label
records = [
    ("AGAAGGAGGTTATACGTAGATCAGGGAAGAAAGT", "True"),
    ("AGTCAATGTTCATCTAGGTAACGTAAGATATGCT", "False"),
    ("CCTTAAGGGTCACTCCAGGTTATAGCATCGGAGT", "True"),
    ("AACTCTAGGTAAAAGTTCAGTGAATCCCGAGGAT", "True"),
    ("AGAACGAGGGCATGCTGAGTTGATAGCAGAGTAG", "False"),
    ("CCTACTGGGCCACGAAAGGTCATTCATTCAGTGA", "True"),
    ("AGTCAAAGTTCAGGACGAGGTTACGTAAAGCACG", "True"),
    ("CCTACTGGGCCAAAGGGCATTGATTCCAATGCTC", "True"),
    ("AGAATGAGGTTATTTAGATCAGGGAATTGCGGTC", "False"),
    ("TGGAGTAGGTTAGGGGCATTCAGAATGGCGTCGA", "True"),
    ("TCTTGTAGATCAATAGAGGTTAAAAAAGTGCGCT", "True"),
    ("CAAACTAGGTCATAGAGGTCAAAGTCCGTGCGTA", "True"),
    ("CGTCCAAGGTCAAAAGTCAGTGAAGAGATGACGG", "True"),
    ("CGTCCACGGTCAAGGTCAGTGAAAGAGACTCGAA", "True"),
    ("TCTTGTAGATCAAGCAGGTAAAGAAAGCCTGAGT", "False"),
    ("ATCGACAGGTCGAAGGTGAGTATACCCACCCGAA", "False"),
    ("ACTATTCGTTGACTTAGGGCAACCGATACGACGC", "False"),
    ("AGAAAGAGGGCAATGAGTTGATAGCACGGGTGGC", "True"),
    ("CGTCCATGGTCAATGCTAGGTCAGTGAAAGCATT", "True"),
    ("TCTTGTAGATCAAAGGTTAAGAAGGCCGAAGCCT", "True"),
    ("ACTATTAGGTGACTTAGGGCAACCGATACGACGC", "True"),
    ("TGAATGAGGTTAAAGATTAGGGAACGTGGCGTCG", "False"),
    ("GCGACTGGGGCATCAGCAGGCTACCATAACTTAA", "False"),
    ("ATACCAAGGTGACCGTGAGGTCGTTGATACTAAC", "True"),
    ("TTACCAAGGTAAAGGTCGTTGATCCCTCTGTAGA", "True"),
    ("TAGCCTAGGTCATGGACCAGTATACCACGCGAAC", "True"),
    ("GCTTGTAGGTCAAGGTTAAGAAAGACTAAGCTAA", "True"),
    ("CCGACTGGGCCAAAGGTCATTGATTCCAATGCTC", "True"),
    ("CAAACTAGGTCAATGTCAAAGTCGGTTTGTGCCA", "True"),
    ("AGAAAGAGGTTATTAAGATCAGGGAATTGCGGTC", "True"),
    ("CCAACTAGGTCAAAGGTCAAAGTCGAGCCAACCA", "True"),
    ("TAGCCTAGGTCATCGGGCCAGTATAGTACGCATC", "True"),
    ("ATCTCTAAGTAAAGTTCAGTGAAAGATCGATAGA", "True"),
    ("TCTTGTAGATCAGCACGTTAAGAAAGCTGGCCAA", "False"),
    ("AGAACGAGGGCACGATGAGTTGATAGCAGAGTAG", "True"),
    ("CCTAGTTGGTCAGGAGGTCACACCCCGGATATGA", "True"),
    ("TCTTGTAGATCAGGAGGTTAAGAAAGCTGGCCAA", "False"),
    ("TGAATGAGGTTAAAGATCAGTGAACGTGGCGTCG", "False"),
    ("CAAACAAGGTCAAGGTCAAAGTCGGTTTGTGCCA", "True"),
    ("GCTACTGGGGCAAAGCAGGTTACCATAAGGTTGG", "True"),
    ("TCATATAGGTAAATGCTACGTGAAAGTCCGATCT", "False"),
    ("AGAATGAGGTTACCAAAGCTCAGGGAAACGCTTG", "False"),
    ("CCAGACAGTTGAGAAGGTAACTCAGCCTCGATTA", "False"),
    ("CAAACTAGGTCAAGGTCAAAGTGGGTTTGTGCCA", "True"),
    ("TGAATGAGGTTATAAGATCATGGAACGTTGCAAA", "False"),
    ("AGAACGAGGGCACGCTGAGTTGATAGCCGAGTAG", "True"),
    ("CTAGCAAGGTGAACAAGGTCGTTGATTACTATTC", "True"),
    ("CCCTACGGGTCAAGGTTATAGCACGGGTGGTACG", "True"),
    ("ATCGAAAGGTCGACGAGGTGCGTATACACCGTTT", "True"),
    ("TCATATAGGTAAACAGTTGAAAGTCCGTAAGTTA", "False"),
]

---

# System: PXR homodimer (NR concentration 270 nM)
# protocol_text: PBM binding z-score (relative to random genomic background probes); higher = stronger binding; sequences stand for … in GC…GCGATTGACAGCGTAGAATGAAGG

# residues, assayed_target, PBM binding z-score
records = [
    ("AGAATGAAGTTATTAAGATCAGGGAATTGCGGTC", "PXR homodimer (NR concentration 270 nM)", 0.044),
    ("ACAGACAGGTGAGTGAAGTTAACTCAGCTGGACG", "PXR homodimer (NR concentration 270 nM)", -0.705),
    ("GCTATTAGTGGAAAGGGCAACCGAATGATTCTCG", "PXR homodimer (NR concentration 270 nM)", -0.0365),
    ("TCGAGTAGGATAGGGGCATTCAGAATGGCGTCGA", "PXR homodimer (NR concentration 270 nM)", -0.0675),
    ("AGAATGAGGTTATTAAGATCAGGGACTTGCGGTC", "PXR homodimer (NR concentration 270 nM)", 0.684),
    ("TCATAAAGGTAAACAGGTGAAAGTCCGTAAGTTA", "PXR homodimer (NR concentration 270 nM)", 0.86),
]

---

// reported PBM binding z-score per item
# System: RARg:RXRa (NR concentration 270 nM, RXRa partner concentration 90 nM)
# protocol_text: PBM binding z-score (relative to random genomic background probes); higher = stronger binding; sequences stand for … in GC…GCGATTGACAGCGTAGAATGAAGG

# residues, PBM binding z-score
records = [
    ("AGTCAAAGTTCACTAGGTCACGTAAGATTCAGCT", 6.62),
    ("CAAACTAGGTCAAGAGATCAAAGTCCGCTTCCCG", 4.48),
    ("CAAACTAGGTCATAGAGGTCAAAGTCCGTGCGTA", 6.95),
    ("GGAAAGAGGGCAAGTTGATAGCAGAGTTTGATGG", 2.23),
    ("TGAATGAGGTTATAAGATCAGTGAACGTTGCAAA", 1.49),
    ("CAAACTAGGTCGCCGGAAGGTCAAAGTCCGCATG", 6.47),
    ("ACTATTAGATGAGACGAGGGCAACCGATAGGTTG", 0.879),
    ("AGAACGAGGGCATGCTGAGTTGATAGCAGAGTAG", 1.33),
    ("CAGCCTAGGTCAGGGCCAGTTTAGGAGGAACGTT", 3.06),
    ("GATACAGGGTCAGCTAGAGGCTAGAGTATGGAAA", 5.74),
    ("GCTATTAGTTGAAAGGGCAAGCGAATGATTCTCG", 1.06),
    ("AGAATGAGTTTAAGATCAGGGAAACAGAATACAT", 0.254),
    ("ACAGACAGGTGAGTGAAGGCAACTCAGCTGGACG", 0.0165),
    ("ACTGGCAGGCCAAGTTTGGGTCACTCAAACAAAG", 2.51),
    ("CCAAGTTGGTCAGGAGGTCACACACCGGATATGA", 5.05),
    ("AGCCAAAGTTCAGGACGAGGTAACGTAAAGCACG", 4.54),
    ("GGAACGAGGGCAAAGTAGATAGCATCTGTCGACG", 1.46),
    ("TCTAGTTGGTCACGCAGGTCACACACGACGGGTA", 3.59),
    ("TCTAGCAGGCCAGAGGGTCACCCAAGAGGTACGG", 3.04),
    ("ACAGACAGGTGAGTGAAGGTGACTCAGCTGGACG", 0.36),
    ("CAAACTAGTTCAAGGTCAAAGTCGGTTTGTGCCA", 4.97),
    ("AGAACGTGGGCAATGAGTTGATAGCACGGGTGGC", -0.369),
    ("ACTCGGAGGACAAGGGTCAGAGCTACGCCAGTGA", 3.88),
    ("CCTGCTAGGTCATCGTCAGCTAATCTACAGTATG", 4.09),
    ("CGTCCAAGGTCAATGCTAGGTAAGTGAAAGCATT", 5.7),
    ("GCAGACAGGTGTAACGCAGGTAACTCAGGGTGGC", -0.375),
    ("CAAACTAGGTCAGGGTCAAAGTCGGTTTGTGCCA", 5.19),
    ("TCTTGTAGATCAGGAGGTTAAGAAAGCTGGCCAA", 0.46),
    ("CCTAGTTGGTCAAGGTCGCACACGCTATAGGTAC", 1.87),
    ("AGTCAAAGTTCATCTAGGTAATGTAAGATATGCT", 5.56),
    ("CCTACTGGGCCATTCAGAGGTAATTGATCATATG", 0.0655),
    ("CCGACTGGTGCAGAAAGGTTACCATACCATCCGG", 1.16),
    ("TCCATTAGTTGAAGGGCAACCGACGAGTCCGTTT", 0.679),
    ("TCTCGGAGGACACGAAAGGTCCGAGCTCGACATC", 0.805),
    ("CCAGACAGGTGAAAGGTAAATCAGTCTGGTACGC", 1.04),
    ("CCTCGGAGGAGAACAGGAGGTCAGAGCTGCCAGA", 2.04),
    ("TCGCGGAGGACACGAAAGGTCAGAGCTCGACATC", 4.79),
    ("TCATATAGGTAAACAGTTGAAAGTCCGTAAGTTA", 0.44),
    ("CCGACTGGGGCAAGGTTACCACAACGCACAGCCA", 1.13),
    ("CAAACTAGGTCAAATGTCAAAGTCGAGCCAACCA", 5.2),
]
